Biological target: μ opioid receptor (MOP) (Homo sapiens, UniProt P35372)
Sequence (P35372 whole entry, species assumed): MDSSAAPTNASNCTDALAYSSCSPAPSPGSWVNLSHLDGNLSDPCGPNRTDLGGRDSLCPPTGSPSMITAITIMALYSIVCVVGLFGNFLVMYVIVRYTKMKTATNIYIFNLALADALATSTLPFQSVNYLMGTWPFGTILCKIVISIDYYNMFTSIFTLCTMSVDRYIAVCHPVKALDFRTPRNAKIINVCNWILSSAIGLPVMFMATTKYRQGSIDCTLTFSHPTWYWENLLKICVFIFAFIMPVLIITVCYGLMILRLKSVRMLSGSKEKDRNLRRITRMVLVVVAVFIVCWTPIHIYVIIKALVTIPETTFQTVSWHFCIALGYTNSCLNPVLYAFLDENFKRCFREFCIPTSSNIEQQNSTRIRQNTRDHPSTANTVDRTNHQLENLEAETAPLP
Format: binding
Conditions: ratio DOP IC50 / MOP IC50
Non-standard residues stand in square brackets, D forms with d. Residues, ends and D or L forms follow the SMILES beside them. Dmt = Cc1cc(O)cc(C)c1C[C@H](N)C(=O)O
readout-name: Selectivity IC50δ/IC50μ
Answer using only a numeral; do not append any unit.

A selection of reference data follows.
{"molecule": "C=Cc1ccccc1C[C@H](NC(=O)[C@@H](C)N(C)C(=O)[C@@H](N)Cc1c(C)cc(O)cc1C)C(=O)NCC(N)=O", "target-or-test-system": "μ opioid receptor (MOP) (Homo sapiens, UniProt P35372)", "Selectivity IC50δ/IC50μ": 165}
{"molecule": "Cc1cc(O)cc(C)c1C[C@H](N)C(=O)N[C@H](C)C(=O)N[C@@H](Cc1ccccc1)C(=O)NCC(N)=O [Compound 20, Dmt-D-Ala-Phe-Gly-NH2] (H-[Dmt][dA]FG-NH2)", "target-or-test-system": "μ opioid receptor (MOP) (Homo sapiens, UniProt P35372)", "Selectivity IC50δ/IC50μ": 161}

Then there is this molecule:
Consider the molecule Cc1cc(O)cc(C)c1C[C@H](N)C(=O)N[C@H](CCCNC(=N)N)C(=O)N[C@@H](Cc1ccccc1-c1ccc(Cl)cc1)C(=O)NCC(N)=O and give its recorded Selectivity IC50δ/IC50μ.
989
